Target: PAR2 (Homo sapiens, UniProt P55085)
Construct: HaCaT cell line keratinocyte models were used; endogenous in cells; host or cells: HaCaT keratinocytes
Assay: Inhibition of trypsin-induced calcium flow (PAR2 activation) in HaCaT keratinocytes, Fluo-4/AM fluorescence
Format: cell-based
Settings: 10 μM; HaCaT cells, 10 nM trypsin stimulation, 30 min incubation; read-out: Anti-PAR2 activity (percentage of inhibition)
TEST READOUT: inhibition at 10 µM (%)

CC(C)[C@H](N)C(=O)O: 26
NC(CO)C(=O)O [L-serine, 2-amino-3-hydroxypropanoic acid]: 13
N=C(N)NCCC[C@H](N)C(=O)O [L-arginine, reference compound]: 12
NC(=O)CC(N)C(=O)O (stereo not shown): 23

---

Target: PAR2 (Homo sapiens, UniProt P55085)
Construct: HaCaT cell line keratinocyte models were used; endogenous in cells; host or cells: HaCaT keratinocytes
Assay: Inhibition of trypsin-induced calcium flow (PAR2 activation) in HaCaT keratinocytes, Fluo-4/AM fluorescence
Format: cell-based
Conditions: 30 μM; HaCaT cells, 10 nM trypsin stimulation, 30 min incubation; read-out: Anti-PAR2 activity (percentage of inhibition)
Entries and their measured inhibition at 30 µM follow.
TEST READOUT: inhibition at 30 µM (%)

NC(=O)CC(N)C(=O)O (stereo not shown): 22
N=C(N)NCCC[C@H](N)C(=O)O [L-arginine, reference compound]: -11
CC(C)[C@H](N)C(=O)O: 20
NC(CO)C(=O)O [L-serine, 2-amino-3-hydroxypropanoic acid]: 20

---

Here, each record is paired with measured inhibition at 3 µM data.
Target: PAR2 (Homo sapiens)
Construct: HaCaT cell line keratinocyte models were used; endogenous in cells; host or cells: HaCaT keratinocytes
Sequence (P55085 26-397): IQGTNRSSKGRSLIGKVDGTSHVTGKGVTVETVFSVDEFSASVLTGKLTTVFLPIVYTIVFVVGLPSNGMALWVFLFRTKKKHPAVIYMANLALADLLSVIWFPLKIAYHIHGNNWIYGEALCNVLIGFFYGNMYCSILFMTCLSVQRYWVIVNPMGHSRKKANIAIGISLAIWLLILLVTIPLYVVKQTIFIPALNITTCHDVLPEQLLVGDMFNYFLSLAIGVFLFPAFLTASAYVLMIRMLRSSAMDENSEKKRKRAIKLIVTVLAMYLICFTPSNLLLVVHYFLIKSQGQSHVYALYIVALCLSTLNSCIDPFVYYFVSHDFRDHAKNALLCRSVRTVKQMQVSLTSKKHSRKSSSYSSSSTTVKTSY
Test: Inhibition of trypsin-induced calcium flow (PAR2 activation) in HaCaT keratinocytes, Fluo-4/AM fluorescence
Format: cell-based
Conditions: 3 μM; HaCaT cells, 10 nM trypsin stimulation, 30 min incubation; read-out: Anti-PAR2 activity (percentage of inhibition)
Experimental: HaCaT cell line keratinocyte models were used. L-serine and L-asparagine were purchased from EVONIK, L-arginine was purchased from AMINO and L-valine was purchased from AJINOMOTO. A fluorescent probe (Fluo-4/AM at a concentration of 2 μM) is incorporated for 30 minutes in cells inoculated in 96-well plates and the active agent to be tested is incubated for 30 minutes. Only the deesterified form of the probe bound to calcium ions is excitable under 485 nm fluorescence and emits at 535 nm. […]
TEST READOUT: inhibition at 3 µM (%)

CC(C)[C@H](N)C(=O)O: 6
NC(=O)CC(N)C(=O)O (stereo not shown): 23
N=C(N)NCCC[C@H](N)C(=O)O [L-arginine, reference compound]: -17
NC(CO)C(=O)O [L-serine, 2-amino-3-hydroxypropanoic acid]: 3

---

Molecular target: PAR2 (Homo sapiens, UniProt P55085)
Construct: HaCaT cell line keratinocyte models were used; endogenous in cells; host or cells: HaCaT keratinocytes
Sequence (P55085 26-397): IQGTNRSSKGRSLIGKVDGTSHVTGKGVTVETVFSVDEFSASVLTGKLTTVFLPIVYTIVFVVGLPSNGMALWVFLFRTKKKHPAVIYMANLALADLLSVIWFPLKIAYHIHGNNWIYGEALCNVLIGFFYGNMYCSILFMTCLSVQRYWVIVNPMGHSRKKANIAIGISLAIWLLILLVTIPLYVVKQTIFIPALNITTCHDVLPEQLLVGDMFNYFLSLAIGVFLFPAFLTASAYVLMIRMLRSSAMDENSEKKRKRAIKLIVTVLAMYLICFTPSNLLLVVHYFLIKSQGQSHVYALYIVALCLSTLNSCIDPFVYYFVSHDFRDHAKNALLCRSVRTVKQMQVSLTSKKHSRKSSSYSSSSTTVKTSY
Assay: Inhibition of trypsin-induced calcium flow (PAR2 activation) in HaCaT keratinocytes, Fluo-4/AM fluorescence
Format: cell-based
Settings: 100 μM; HaCaT cells, 10 nM trypsin stimulation, 30 min incubation; read-out: Anti-PAR2 activity (percentage of inhibition)
Procedure: HaCaT cell line keratinocyte models were used. L-serine and L-asparagine were purchased from EVONIK, L-arginine was purchased from AMINO and L-valine was purchased from AJINOMOTO. A fluorescent probe (Fluo-4/AM at a concentration of 2 μM) is incorporated for 30 minutes in cells inoculated in 96-well plates and the active agent to be tested is incubated for 30 minutes. Only the deesterified form of the probe bound to calcium ions is excitable under 485 nm fluorescence and emits at 535 nm. […]
Below: a set of entries, each annotated with reported inhibition at 100 µM.
TEST READOUT: inhibition at 100 µM (%)

NC(=O)CC(N)C(=O)O [L-asparagine, asparagine-amino-succinic acid]: 31
NC(CO)C(=O)O [L-serine, 2-amino-3-hydroxypropanoic acid]: 33
CC(C)[C@H](N)C(=O)O [L-valine]: 34
N=C(N)NCCC[C@H](N)C(=O)O [L-arginine, reference compound]: 1

Reference source: patent US10052297B2
